Biological target: cynomolgus monkey heterodimeric single-chain CD3εγ extracellular domain (cynomolgus monkey, UniProt Q95LI5 22-117; Q95LI7 23-113)
Sequence (Q95LI7 other isoform, or with tags, fused parts or gaps): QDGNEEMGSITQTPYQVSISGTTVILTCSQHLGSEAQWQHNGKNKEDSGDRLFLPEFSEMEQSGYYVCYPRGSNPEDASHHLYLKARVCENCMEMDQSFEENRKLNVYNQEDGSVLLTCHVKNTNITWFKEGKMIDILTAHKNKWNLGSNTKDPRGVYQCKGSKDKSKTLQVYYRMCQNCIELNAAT
Assay: SPR, rabbit IgG captured, cyno single-chain CD3εγ ECD injected
recorded endpoint: pKd
Please express pKd as -log10 of the molar concentration.

binder	pKd
clone-12 (antibody, V domains shown, Recombinant rabbit IgG) VH: QSLEESGGRLVTPGTPLTLTCTVSGFPLSRYAMLWVRQAPGKGLEWIGLITRADNKYYASWAKGRFTISKTSTTVDLEITSPTTEDTATYFCARRHYNTDGYPIAIGDLWGPGTLVTVSS VL: AQVLTQTPSSVSATVGGTVTISCQSNENIYSNNRLSWFQQKPGQPPKLLIYSASSLASGVPSRFKGSGSGTQFTLTISDLECDDAATYYCQGEFNCNSADCFTFGGGTEVVVKG	7.65
clone-04 (antibody, V domains shown, Recombinant rabbit IgG; also called Clone 4) VH: QSLEESGGRLVKPDETLTLTCTVSGFPLSSYAMGWFRQAPGKGLEWIGMILRSDNTYYASWAKGRFTISKTSTTVDLKITSPTTEDTATYFCARRHYNASGNPIAIGDLWGPGTLVTVSS VL: AQVLTQTPSSVSAAVGGTVTINCQSSQSVYNNNRLSWFQQKPGQPPKLLIYTTSSLASGVPSRFKGSGSGTEFTLTISDLECADAATYYCQGEFSCSRADCFNFGGGTEVVVKG	8.39
clone-03 (antibody, V domains shown, Recombinant rabbit IgG; also called Clone 3) VH: QSLEESGGRLVTPGTPLTLTCTVSGFPLNRYAMLWVRQAPGKGLEWIGLITRADKKYYASWAKGRFTISKTSTTVDLEITGPTTEDTATYFCARRHYNTDGYPIAIGDLWGPGTLVTVSS VL: AQVLTQTPSSVSAAVGGTVTISCQSNENIYSNNRLSWFQQKPGQPPNQLIYSASSLASGVPSRFKGSGSGTQFTLTISDLECDDAATYYCQGEFNCNSADCFTFGGGTEVVVKG	7.94

Turning now to a further binder:
I have this binder here, clone-01 (antibody, V domains shown, Recombinant rabbit IgG; also called purified monoclonal rabbit anti-CD3ε antibody clone-01) VH: QSVEESGGRLVTPGTPLTLTCTVSGFPLSSYAMIWVRQAPGKGLEWIGMILRAGNIYYASWAKGRFTISKTSTTVDLKITSPTTEDTATYFCARRQYNTDGYPIGIGDLWGPGTLVTVSS VL: AQVLTQTASSVSAAVGGTVTISCQSSESVYNNNRLSWFQQKPGQPPKQLIYSASSLASGVPSRFKGSGSGTQFTLTISDLECDDAATYYCQGEFSCSSADCFTFGGGTEVVVKG , and I need its recorded pKd.
7.99
